Test system: MDA-MB-435
method-notes: cells
measurement-conditions: Homo sapiens, MDA-MB-435, 72 h
Description: Cytotoxicity against human MDA-MB-435 cells after 72 hrs by MTT assay
measure: IC50 (nM)

Some compounds with recorded IC50:
COc1ccc2c(c1)/C(=C\c1cccc(O)c1)C(=O)CC2 2070
COc1ccc2c(c1)CCC(=O)/C2=C/c1ccc(Cl)c(Cl)c1 1230
COc1ccc2c(c1)CCC(=O)/C2=C/c1ccc(OC)c(OC)c1 200
COc1ccc(/C=C2/C(=O)CCc3ccc(OC)cc32)cc1 730

[A] COc1ccc(/C=C2/C(=O)CCc3c(OC)cccc32)cc1OC
[B] COc1ccc2c(c1)CCC(=O)/C2=C/c1ccc(Cl)cc1Cl
Task: Which has the higher IC50, A or B ? Your answer should be the label attached to the chosen record.
Output: A

[1] COc1cccc2c1CCC(=O)/C2=C/c1ccccc1Cl
[2] COc1ccc2c(c1)CCC(=O)/C2=C/c1ccc(OC)c(OC)c1OC
[3] COc1ccc2c(c1)/C(=C\c1cc(OC)c(OC)c(OC)c1)C(=O)CC2
[4] COc1cccc2c1CCC(=O)/C2=C/c1cc(OC)c(OC)c(OC)c1
Task: Order the records so the highest IC50 appears first and the lowest last. Provide the ranking by listing each label in its place in the requested order.
Output: 1, 2, 4, 3
(1: 3350 nM, 2: 950 nM, 4: 610 nM, 3: 340 nM)

[A] COc1ccc2c(c1)/C(=C\c1ccc(O)c(OC)c1)C(=O)CC2
[B] COc1ccc2c(c1)CCC(=O)/C2=C/c1cccc(O)c1
[C] COc1cccc2c1CCC(=O)/C2=C/c1ccc([N+](=O)[O-])cc1
[D] COc1ccc2c(c1)CCC(=O)/C2=C/c1ccc(C(C)(C)C)cc1
Task: Order the records so the highest IC50 appears first and the lowest last. Provide the ranking by listing each label in its place in the requested order.
Output: C, A, D, B
(C: 7680 nM, A: 4350 nM, D: 1770 nM, B: 760 nM)
